Biological target: HMG-CoA Reductase (Rattus norvegicus)
Construct: the microsomal fraction is isolated by differential ultra centrifugation to obtain the HMG-CoA reductase enzyme; from tissue; host or cells: rat liver, microsomal fraction (cholestyramine-fed rats)
Sequence (P51639 1-887): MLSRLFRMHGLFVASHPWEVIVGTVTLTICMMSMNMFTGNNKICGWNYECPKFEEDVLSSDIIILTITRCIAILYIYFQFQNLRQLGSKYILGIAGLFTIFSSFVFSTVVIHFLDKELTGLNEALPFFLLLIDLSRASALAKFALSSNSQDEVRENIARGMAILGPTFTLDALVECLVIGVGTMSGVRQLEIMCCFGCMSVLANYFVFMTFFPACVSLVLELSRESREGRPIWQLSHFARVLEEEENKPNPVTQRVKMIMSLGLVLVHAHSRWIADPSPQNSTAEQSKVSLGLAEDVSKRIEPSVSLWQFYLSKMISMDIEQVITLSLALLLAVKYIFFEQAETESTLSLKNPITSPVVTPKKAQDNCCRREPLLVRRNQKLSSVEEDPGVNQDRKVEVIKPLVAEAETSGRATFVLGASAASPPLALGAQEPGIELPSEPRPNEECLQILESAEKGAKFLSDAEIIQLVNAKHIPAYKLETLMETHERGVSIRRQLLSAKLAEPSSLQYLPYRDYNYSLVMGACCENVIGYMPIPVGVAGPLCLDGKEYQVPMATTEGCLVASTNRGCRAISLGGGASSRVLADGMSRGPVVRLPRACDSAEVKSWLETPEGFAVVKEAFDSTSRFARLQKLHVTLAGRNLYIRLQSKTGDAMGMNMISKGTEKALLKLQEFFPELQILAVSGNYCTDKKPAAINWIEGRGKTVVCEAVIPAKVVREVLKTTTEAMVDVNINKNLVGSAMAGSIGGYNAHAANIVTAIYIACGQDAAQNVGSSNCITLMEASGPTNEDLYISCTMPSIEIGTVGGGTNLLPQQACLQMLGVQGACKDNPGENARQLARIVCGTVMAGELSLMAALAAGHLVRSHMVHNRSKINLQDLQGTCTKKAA
Assay: Inhibition of HMG-CoA reductase (rat liver microsomal fraction, [14C] HMG-CoA)
Format: biochemical
Conditions: Lactone form; rat liver microsomal enzyme; pH 7.5, 37° C., 20 min; read-out: Inhibition of HMG-CoA Reductase (IC50, M), Lactone
Measurement type: IC50 (M)
Give just the numeric value; M need not be written.

CCC(C)(C)C(=O)OCc1cc(C)cc(C)c1/C=C/[C@@H]1C[C@@H](O)CC(=O)O1 (relative stereo) [Example 4]
5.7e-05
CC[C@H](C)C(=O)O[C@H]1C[C@@H](C)C=C2C=C[C@H](C)[C@H](CC[C@@H]3C[C@@H](O)CC(=O)O3)[C@H]21 [Mevinolin, reference compound]
6e-07
CCCC(OC(=O)C(C)(C)CC)c1cc(C)cc(C)c1/C=C/[C@@H]1C[C@@H](O)CC(=O)O1 (relative stereo) [Example 1]
2.7e-06

Give IC50 for CCC(C)(C)C(=O)OC(c1ccccc1)c1cc(C)cc(C)c1/C=C/[C@@H]1C[C@@H](O)CC(=O)O1 (relative stereo) [Example 3] tested on HMG-CoA Reductase (Rattus norvegicus).
0.0017

* * *

Target: HMG-CoA Reductase (Rattus norvegicus)
Construct: the microsomal fraction is isolated by differential ultra centrifugation to obtain the HMG-CoA reductase enzyme; from tissue; host or cells: rat liver, microsomal fraction (cholestyramine-fed rats)
Assay: Inhibition of HMG-CoA reductase (rat liver microsomal fraction, [14C] HMG-CoA)
Format: biochemical
Conditions: Dihydroxycarboxylate form (dihydroxy sodium carboxylate); rat liver microsomal enzyme; pH 7.5, 37° C., 20 min; read-out: Inhibition of HMG-CoA Reductase (IC50, M), Dihydroxycarboxylate
Measurement type: IC50

CC[C@H](C)C(=O)O[C@H]1C[C@@H](C)C=C2C=C[C@H](C)[C@H](CC[C@@H]3C[C@@H](O)CC(=O)O3)[C@H]21 [Mevinolin, reference compound]
5e-09 M
CCC(C)(C)C(=O)OC(c1ccccc1)c1cc(C)cc(C)c1/C=C/[C@@H]1C[C@@H](O)CC(=O)O1 (relative stereo) [Example 3]
6.2e-06 M
CCCCCCCCCC(OC(=O)C(C)(C)CC)c1cc(C)cc(C)c1/C=C/[C@@H]1C[C@@H](O)CC(=O)O1 (relative stereo) [Example 2]
> 0.0001 M
CCC(C)(C)C(=O)OCc1cc(C)cc(C)c1/C=C/[C@@H]1C[C@@H](O)CC(=O)O1 (relative stereo) [Example 4]
4e-05 M

# context switch: different molecule, same IC50
Give the reported IC50 for this molecule. CCCC(OC(=O)C(C)(C)CC)c1cc(C)cc(C)c1/C=C/[C@@H]1C[C@@H](O)CC(=O)O1 (relative stereo) [Example 1]
1.7e-06 M
